PROTOCOL DESCRIPTION: p53 small molecule agonists, cell-based qHTS assay with rat liver microsomes (AID 1963578)
CONDITION DESCRIPTION: HCT-116 p53RE-bla, beta-lactamase ratio, 16 h; series mostly up to 66 µM
Records with an inconclusive call do not appear. Calls of active or inactive are those of the source. Calls come from the whole dose curve.
QUANTITY KIND: activation

INSERT INTO assay_data (compound, result) VALUES
  ('CCC(=O)OC(C)c1ccccc1 (configuration not stated)', 'inactive'),
  ('CCCCCCCOC(=O)c1ccccc1C(=O)OCCCCCCC', 'inactive'),
  ('O=C(O)c1cc2ccccc2nc1C(=O)O', 'inactive'),
  ('CCc1cccc(CC)c1NC(=O)C(=O)O', 'inactive'),
  ('COc1ccc(Br)c(C)c1', 'inactive');

activation in this record for CC1=CC(=O)[C@H]2C[C@@H]1C2(C)C : inactive

Record OC1OC[C@@H](O)[C@H](O)[C@H]1O (some centres not stated) , field activation: inactive

###

TESTED ON: KiSS-1 receptor (Homo sapiens)
PROTOCOL DESCRIPTION: Human kisspeptin (KISS1R) small molecule agonists, calcium flux assay in KISS1R-HEK293 cells (AID 1920064)
CONDITION DESCRIPTION: KISS1R-HEK293, calcium flux fluorescence, agonist; series mostly up to 76.8 µM
Calls of active or inactive are those of the source. The call rests on the fitted dose curve; in most records, active means well fitted activation curve with a large enough effect in the repeat runs; inconclusive means weak or mixed curves; inactive means flat fitted curve, though single readings scatter.
QUANTITY KIND: activation

INSERT INTO measurements (compound, tested_on, quantity_kind, result) VALUES
  ('CC(C)(C)NC[C@H](O)COc1nsnc1N1CCOCC1', 'KiSS-1 receptor (Homo sapiens)', 'activation', 'inactive'),
  ('O=C1OC(CN2CCOCC2)CN1/N=C/c1ccc([N+](=O)[O-])o1 (stereo not drawn)', 'KiSS-1 receptor (Homo sapiens)', 'activation', 'inactive'),
  ('Cc1ccccc1S(N)(=O)=O', 'KiSS-1 receptor (Homo sapiens)', 'activation', 'inactive'),
  ('C=CCOC(=O)CCCCCC', 'KiSS-1 receptor (Homo sapiens)', 'activation', 'inactive'),
  ('C1CCCNCCC1', 'KiSS-1 receptor (Homo sapiens)', 'activation', 'inactive');

activation reading for CCCC1O[C@@H]2C[C@H]3[C@@H]4CCC5=CC(=O)C=C[C@]5(C)[C@H]4[C@@H](O)C[C@]3(C)[C@]2(C(=O)CO)O1 (stereo partly drawn) : inactive

activation for NC(=O)Nc1ccc(Cl)cc1 is inactive

Reported activation ( CC(C)(C)c1ccc(C=O)cc1 ) = inactive

O=C(c1ccccc1O)c1ccccc1O has a reported activation of inactive

Documented activation of N#C[C@@H]1C[C@@H]2C[C@@H]2N1C(=O)[C@@H](N)C12CC3CC(CC(O)(C3)C1)C2 : inactive

// activation lookup, compound = O=C1C=CC(=O)O1 , result: inactive

The compound Cc1cc(N)no1 showed activation equal to inactive

Given item O=C(c1ccc2c(c1)C(=O)OC2=O)c1ccc2c(c1)C(=O)OC2=O , the value recorded as its activation is inactive

CS(=O)(=O)c1ccc(Cl)cc1 has a reported activation of inactive

The recorded activation for C/C=C/CO is inactive

For reference, reported activation for CC(C)OC(=O)CCCCC(=O)OC(C)C stands at inactive

The compound listed as Cc1cc(C)cc(N)c1 shows activation equal to inactive

compound CCCC(=O)OCC(COC(=O)CCC)OC(=O)CCC , activation observed: inactive

# compound Cc1ccc(C(=O)C(=O)O)cc1C ; its activation = inactive

Lab note: measured activation of COc1ccc2cc3[n+](cc2c1OC)CCc1cc2c(cc1-3)OCO2 was inactive

# activation of O=C(CCCN1CCC(O)(c2cccc(C(F)(F)F)c2)CC1)c1ccc(F)cc1 = inactive

# credit: PubChem BioAssay (Tox21)
